assayComment: Microsomal stability, human liver microsomes (predicted hepatic clearance)
conditionInfo: predicted from in vitro microsomal stability data
Class boundaries, taken from values of Predicted Hepatic Clearance (Pred. Cl.), are as follows: group 1: < 4 mL/min/kg; group 2: ≥ 4 mL/min/kg and < 7 mL/min/kg; group 3: ≥ 7 mL/min/kg

compound	classLabel
N#Cc1ccc(COc2ncc(F)c(-c3cc(F)c(Cc4nc5ccc(C(=O)O)cc5n4C[C@@H]4CCO4)cc3F)n2)c(F)c1	group 2
COc1cc(C#N)ccc1COc1nccc(-c2cc(F)c(Cc3nc4ccc(C(=O)O)cc4n3CC3(CF)CC3)cc2F)n1	group 1
N#Cc1ccc(COc2cccc(-c3ccc(Cc4nc5c(F)cc(C(=O)O)cc5n4CC4(C(F)F)CC4)c(F)c3)n2)c(F)c1	group 1
COC1(Cn2c(Cc3cc(F)c(-c4cccc(OCc5ccc(C#N)cc5F)n4)cc3F)nc3ccc(C(=O)O)cc32)CN(C2COC2)C1	group 3
COCCn1c(Cc2cc(F)c(-c3cccc(OCc4ccc(Cl)c(F)c4F)n3)cc2F)nc2ccc(C(=O)O)cc21	group 1
COCCn1c(Cc2ccc(-c3ccc(Cl)c(OCc4ccc(C#N)cc4F)n3)cc2F)nc2ccc(C(=O)O)cc21	group 1
N#CCC1(Cn2c(Cc3cc(F)c(-c4ccnc(OCc5ccc(C#N)cc5F)n4)cc3F)nc3ccc(C(=O)O)cc32)CC1	group 1
COc1cc(C#N)ccc1COc1nccc(-c2cc(F)c(Cc3nc4ccc(C(=O)O)nc4n3CC3(CF)CC3)cc2F)n1	group 1
N#Cc1ccc(COc2nccc(-c3cc(F)c(Cc4nc5ccc(C(=O)O)nc5n4CC4(CF)CC4)c(F)c3)n2)c(F)c1	group 1
N#Cc1ccc(COc2cccc(-c3cc(F)c(Cc4nc5ccc(C(=O)O)cc5n4Cc4ncccn4)cc3F)n2)c(F)c1	group 2
N#Cc1ccc(COc2cccc(-c3ccc(Cc4nc5ccc(C(=O)O)cc5n4CC4(C(F)F)CC4)cc3F)n2)c(F)c1	group 3
CC(C1CCCO1)n1c(Cc2cc(F)c(-c3cccc(OCc4ccc(C#N)cc4F)n3)cc2F)nc2ccc(C(=O)O)cc21 (centres unmarked)	group 3

---

assayComment: Microsomal stability, human liver microsomes (predicted hepatic clearance)
conditionInfo: predicted from in vitro microsomal stability data

smilesStr	Predicted Hepatic Clearance (Pred. Cl.)
CCn1nccc1Cn1c(Cc2ccc(-c3cccc(OCc4ccc(C#N)cc4F)n3)c(F)c2)nc2ccc(C(=O)O)cc21	10 mL/min/kg
C[C@@H](O)Cn1c(Cc2cc(F)c(-c3cccc(OCc4ccc(C#N)cc4F)n3)cc2F)nc2ccc(C(=O)O)cc21	6.67 mL/min/kg
CC(=O)N1C[C@H](F)C[C@@H]1Cn1c(Cc2cc(F)c(-c3cccc(OCc4ccc(C#N)cc4F)n3)cc2F)nc2ccc(C(=O)O)cc21	4.17 mL/min/kg
COCCn1c(Cc2ccc(-c3cccc(OCc4ccc(C#N)cc4F)c3)cc2F)nc2ccc(C(=O)O)cc21	3.5 mL/min/kg
COCCn1c(Cc2cc(F)c(-c3cccc(OCc4ccc(Cl)cn4)n3)cc2F)nc2ccc(C(=O)O)cc21	6.5 mL/min/kg
N#Cc1ccc(COc2cccc(-c3cc(F)c(Cc4nc5ccc(C(=O)O)cc5n4Cc4ncco4)cc3F)n2)c(F)c1	5 mL/min/kg
N#Cc1ccc(COc2nc(-c3ccc(Cc4nc5c(F)cc(C(=O)O)cc5n4C[C@@H]4CCO4)cc3F)ccc2F)c(F)c1	1.83 mL/min/kg
N#CCC1(Cn2c(Cc3cc(F)c(-c4cccc(OCc5ccc(C(F)F)cc5F)n4)cc3F)nc3ccc(C(=O)O)cc32)CC1	1.83 mL/min/kg
N#Cc1ccc(COc2cccc(-c3cc(F)c(Cc4nc5ccc(C(=O)O)cc5n4CC4(C(F)F)COC4)cc3F)n2)c(F)c1	5.83 mL/min/kg
COCCn1c(Cc2ccc(-c3cccc(OCn4ccc(C(=O)O)cc4=O)n3)cc2F)nc2ccc(C(=O)O)cc21	<1.83 mL/min/kg
N#Cc1ccc(COc2ccc(F)c(-c3cc(F)c(Cc4nc5c(F)cc(C(=O)O)cc5n4C[C@@H]4CCO4)cc3F)n2)c(F)c1	6.17 mL/min/kg
N#Cc1ccc(COc2nccc(-c3ccc(Cc4nc5ccc(C(=O)O)nc5n4CC4(CF)CC4)cc3F)n2)c(F)c1	2.67 mL/min/kg
COC[C@@H](C)n1c(Cc2cc(F)c(-c3cccc(OCc4ccc(C#N)cc4F)n3)cc2F)nc2ccc(C(=O)O)cc21	5.83 mL/min/kg
O=C(O)c1ccc2nc(Cc3cc(F)c(-c4ccnc(OCc5ccc(C(F)F)cc5F)n4)cc3F)n(C[C@@H]3CCO3)c2c1	3.17 mL/min/kg
